system: NEK4; conditions: concentration: 1 μM, replicates: in singlicate; n = 1;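 also: KINOMEscan kinase panel screen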
Give measured %Inh for each item. Keep answers brief.
One number for each entry, in %.

For orientation, consider the following solved cases.
> print(dat)
                                   compound  measurementunits  valueobserved
1  NCCNS(=O)(=O)c1ccc(-c2ccnc3[nH]ccc23)cc1 [GSK977617]                 %              0
2  Nc1nccc(-c2c(-c3ccc(F)cc3)ncn2C2CCN(CC(F)(F)F)CC2)n1 [SB-236560]                 %              0
3  CC(C)Oc1ccc2c(-c3ccnc(Nc4ccc(N5CCN(C)CC5)cc4)n3)cnn2n1 [GW696155]                 %             10
4  COc1cc2c(cc1OC[C@@H](O)CO)ncc1c3ccc(C#N)cc3[nH]c21                 %              0
5  O=C(NCCCN1CCOCC1)c1cccc(Nc2nccc(Nc3ccc(Oc4ccccc4)cc3)n2)c1 [GW663929]                 %              0

Batch lookup, %Inh per entry.
1. O=C(NCCNc1ccnc(Nc2ccc(F)cc2)n1)Nc1ccccc1F [GSK1379880]
2. Cl.Cl.Cl.Fc1ccc(-c2ncn(C3CCNCC3)c2-c2ccnc(Nc3ccccc3)n2)cc1 [SB-238039]
3. Fc1ccc(-c2ncn(CCCN3CCOCC3)c2-c2ccccn2)cc1 [SB-211742]
4. N#Cc1ccc(-c2cc(-c3c[nH]nc3-c3ccccn3)ccn2)cc1 [GW693028]
5. NCC(NC(=O)c1cc(-c2cn[nH]c2)c(-c2ccnc3[nH]ccc23)s1)c1ccccc1.O=C(O)C(F)(F)F.O=C(O)C(F)(F)F (centres unmarked) [GSK1325775]
6. COc1ccc(COc2cc(-n3cnc4ccccc43)sc2C(N)=O)cc1 [GSK1024304]
7. Nc1nc(-c2ccc3c(N)n[nH]c3c2)cc(N2CCCC2)n1 [GSK2227430]

[15, 0, 0, 20, 0, 0, 0]

Batch lookup, %Inh per entry.
1. C[C@@H](Oc1cc(-n2cnc3ccc(NC(=O)NC(C)(C)C)cc32)sc1C(N)=O)c1ccccc1Cl [GSK346294]
2. COc1cc2c(cc1OCCN1CCN(C)CC1)ncc1c3ccc(C#N)cc3[nH]c21
3. Cc1nnc(-c2ccc3ncc(-c4ccc(S(C)=O)cc4)n3c2)o1 (centres unmarked)
4. CN(C(=O)c1ccc(-c2cc(-c3c[nH]nc3-c3ccccn3)ccn2)cc1)C1CCOCC1 [GW810083]
5. Cc1c2ccc(N(C)c3ccnc(Nc4cccc(S(N)(=O)=O)c4)n3)cc2nn1Cc1ccccc1.Cl.Cl [GW787226]
6. COc1ccc(Nc2nccc(N3CCC(NC(=O)Nc4cccc(C(C)=O)c4)C3)n2)cc1 (centres unmarked) [GSK1379731]

[0, 0, 0, 0, 6, 13]

Batch lookup, %Inh per entry.
1. O=c1cc(N2CCOCC2)nc2n(Cc3cccc(C(F)(F)F)c3)ccn12 [GSK2297543]
2. CN1c2ccc(CNc3ccc(F)cc3)cc2-c2c(cnn2C)S1(=O)=O
3. O=c1cc(N2CCOCC2)nc2n(Cc3cccc(Cl)c3Cl)c(C3CC3)nn12 [GSK2358994]

1: 0; 2: 0; 3: 11

Batch lookup, %Inh per entry.
1. O=C1Cc2cc(Nc3nc(NCc4cccc(S(=O)(=O)C(F)(F)F)c4)ncc3C(F)(F)F)ccc2N1
2. CCc1ccnc(/C=C/c2n[nH]c3cc(Sc4ccccc4C(=O)NC)ccc23)c1
3. COc1ccc(S(=O)(=O)NC2CCN(c3cc(C)nc(Nc4cccc(C#N)c4)n3)CC2)cc1.O=C(O)C(F)(F)F [GSK1653539]
4. O=C(Nc1cccc(-c2nn3ncccc3c2-c2ccnc(Nc3cccc(C(F)(F)F)c3)n2)c1)c1c(F)cccc1F [GSK299495]
5. CN1c2ccc(NCc3ccc(F)cc3)cc2-c2c(cnn2C)S1(=O)=O
6. CNc1ncnc2[nH]ncc12 [SKF-18355]

1. 5
2. 0
3. 0
4. 0
5. 0
6. 0

Batch lookup, %Inh per entry.
1. O=C(NCCNc1ccnc(Nc2ccc(F)cc2)n1)c1cc2ccccc2s1 [GSK1379874]
2. O=C1NC(=O)C(N2CCc3ccccc32)=C1c1cccc(Cl)c1 [SB-408010]
3. O=C(c1ccc(-c2cc(-c3c[nH]nc3-c3ccccn3)ccn2)cc1)N1CCOCC1 [GW812171]
4. Cc1cccc(-c2nc(-c3ccc(S(C)(=O)=O)cc3)sc2-c2ccncc2)c1

1. 0
2. 0
3. 0
4. 0

Batch lookup, %Inh per entry.
1. Cc1c(Cn2c(C)nn3c(=O)cc(N4CCOC(C)C4)nc23)cccc1C(F)(F)F (centres unmarked) [GSK2344444]
2. COc1cc2ncn(-c3cc(OCc4sccc4Cl)c(C(N)=O)s3)c2cc1OC [GSK448459]
3. Cc1ccc(C(=O)NCC(N)=O)cc1-n1c(C)cc(OCc2ccc(F)cc2F)c(Br)c1=O
4. Cc1cn2c(=O)cc(N3CCOCC3)nc2n1Cc1cccc(Cl)c1Cl [GSK2334006]

[22, 0, 0, 4]

Origin of values: paper PMC5540273
